# procedure summary: recombinant UMI read abundance after kanamycin selection (control-corrected) (log10(CPM+1)); higher = more efficient recombination; extreme values may be limits of the assay; sequences stand for … in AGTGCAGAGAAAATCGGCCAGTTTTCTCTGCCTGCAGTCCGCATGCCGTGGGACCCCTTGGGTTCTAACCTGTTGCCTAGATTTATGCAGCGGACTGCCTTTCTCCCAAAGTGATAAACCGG…AGGTTGGTTTCACT; site = the 11-nt donor
The class of a record is decided solely by its measured recombinant UMI read abundance (log10); consult lower level (below 0.005), middle level (0.005 to below 1), upper level (1 or more)

Consider the worked cases shown below.
> print(dat)
                               residue.codes      category
 1  ATAAGGGCATGGACCGGTTTTCCCGGTAATCCGTATTTGAC (site ATAAGGGCTGT)   upper level
 2  AGCAAGGCATGGACCGGTTTTCCCGGTAATCCGTATTTGCA (site AGGAAGACTTG)  middle level
 3  CGTTAGACATGGACCGGTTTTCCCGGTAATCCGTATTTGGG (site CGTTAGACTCA)   lower level
 4  CCGTTAGCATGGACCGGTTTTCCCGGTAATCCGTATTTGCG (site CCGTTAGCTCA)   lower level
 5  ACTTCTACATGGACCGGTTTTCCCGGTAATCCGTATTTGTG (site ACTTCTACTCA)  middle level
 6  CTGCTCACATGGACCGGTTTTCCCGGTAATCCGTATTTGCC (site CTGCTCACTGG)   upper level
 7  GTTATTCCATGGACCGGTTTTCCCGGTAATCCGTATTTGGT (site GTTGTTCCTAC)  middle level
 8  CAGTCGACATGGACCGGTTTTCCCGGTAATCCGTATTTGCG (site CAGTCGACTCC)   lower level
 9  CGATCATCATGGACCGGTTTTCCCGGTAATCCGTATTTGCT (site TGCTCATCTAG)   lower level
10  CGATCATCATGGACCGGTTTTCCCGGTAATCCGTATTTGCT (site CGCTCCTCTAG)   lower level

Prompt line: Please classify: TCGACATCATGGACCGGTTTTCCCGGTAATCCGTATTTGCG (site TCGACATCTCG)
Response line: middle level

====

Reported recombinant barcode read abundance (log10) values follow for various sequences
# procedure summary: recombinant barcode read abundance after kanamycin selection (control-corrected) (log10(CPM+1)); higher = more efficient recombination; sequences stand for … in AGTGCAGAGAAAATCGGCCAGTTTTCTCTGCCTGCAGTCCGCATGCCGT…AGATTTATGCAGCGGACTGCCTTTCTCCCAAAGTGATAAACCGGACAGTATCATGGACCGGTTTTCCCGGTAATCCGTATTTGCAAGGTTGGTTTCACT; site = the 11-nt target

Consider the worked cases shown below.
> print(dat)
                              residue.codes  result
1  CTCGGATCTTGGGTTCTAACCTGTTGCTC (site CTCGGATCTTA)   0.138
2  CCTTCCACTTGGGTTCTAACCTGTTGCCT (site TCTTCCACTAG)  0.0607
3  GTCTCAACTTGGGTTCTAACCTGTTGCCT (site GTCTCAACTAG)   0.604
4  CGGTCCTCTTGGGTTCTAACCTGTTGCGC (site CGGTCCTCTGC)    2.63
5  TCGAGAGCTTGGGTTCTAACCTGTTGCTA (site TCGAGAGCTCG)   0.183
6  ATTAAGACTTGGGTTCTAACCTGTTGCCT (site ATTAAGACTAG)    1.35
7  GAGGGCCCTTGGGTTCTAACCTGTTGCTG (site GAGGGCCCTCA)     2.8
8  ATGCCCTCTTGGGTTCTAACCTGTTGCCT (site ATGACCTCTAG)   0.688

Prompt line: What recombinant barcode read abundance (log10) value was documented for this sequence, GGTTGGGCTTGGGTTCTAACCTGTTGCAG (site GGTTGGGCTCT) ?
Response line: 1.46

Prompt line: Also GCCTCGTCTTGGGTTCTAACCTGTTGCCT (site GCATCGTCTAG) , if possible.
Response line: 0.0638

Prompt line: Then this sequence: TCCGTCCCTTGGGTTCTAACCTGTTGCAT (site TCCGTCCCTAT)
Response line: 1.4

Prompt line: Check AATTTGACTTGGGTTCTAACCTGTTGCCT (site AAGTTGACTAG) too.
Response line: 0.115

Prompt line: Then what about the sequence TTCGGGCCTTGGGTTCTAACCTGTTGCCT (site ATCGGGCCTAG) ?
Response line: 0.0878

Prompt line: Entry to check: ACATGACCTTGGGTTCTAACCTGTTGCTT (site ACATGACCTAA)
Response line: 0.223
